test system: HIV-1 strain 92-HT599; test: Anti HIV-1 p24 assay, strain 92-HT599 in MT2 cells; type: cell-based; conditions: Human immunodeficiency virus 1; MT2 cells, HIV-1 92-HT599, p24, concentration 0.1 μM; read-out: Percent inhibition
Where inhibition at 0.1 µM equals or exceeds 10%, the correct label is Condition met; where it does not, the label is Condition not met.

INSERT INTO results (compound, target_or_test_system, class_name) VALUES
  ('C=C(C)[C@@H]1CC[C@]2(C(=O)NC3CC(C(=O)NCCC(=O)N4CCOCC4)C3(C)C)CC[C@]3(C)[C@H](CC[C@@H]4[C@@]5(C)CC[C@H](O)C(C)(C)[C@@H]5CC[C@]43C)[C@@H]12 (some centres unmarked)', 'HIV-1 strain 92-HT599', 'Condition met'),
  ('C=C(C)[C@@H]1CC[C@]2(C(=O)N[C@@H]3C[C@H](C(=O)N[C@H](C(=O)O)C(C)C)C3(C)C)CC[C@]3(C)[C@H](CC[C@@H]4[C@@]5(C)CC[C@H](O)C(C)(C)[C@@H]5CC[C@]43C)[C@@H]12', 'HIV-1 strain 92-HT599', 'Condition met'),
  ('C=C(C)[C@@H]1CC[C@]2(C(=O)N[C@H]3C[C@@H](C(=O)N4CCCC4)C3(C)C)CC[C@]3(C)[C@H](CC[C@@H]4[C@@]5(C)CC[C@H](OC(=O)CC(C)(C)C(=O)O)C(C)(C)[C@@H]5CC[C@]43C)[C@@H]12', 'HIV-1 strain 92-HT599', 'Condition met'),
  ('C=C(C)[C@@H]1CCC2(C(=O)N3C4CCC3CC(n3c(C)nnc3C(C)C)C4)CC[C@]3(C)[C@H](CC[C@@H]4[C@@]5(C)CC[C@H](O)C(C)(C)[C@@H]5CC[C@]43C)[C@@H]12 (some centres unmarked)', 'HIV-1 strain 92-HT599', 'Condition met'),
  ('C=C(C)[C@@H]1CC[C@]2(C(=O)NC3CC(C(=O)NCCC(=O)N4CCCC4)C3(C)C)CC[C@]3(C)[C@H](CC[C@@H]4[C@@]5(C)CC[C@H](O)C(C)(C)[C@@H]5CC[C@]43C)[C@@H]12 (some centres unmarked)', 'HIV-1 strain 92-HT599', 'Condition not met');
